System: RS4;11 cells
Assay: RS4;11 cell viability assay (CellTiter Glo)
Format: cell-based, human
Conditions: Homo sapiens, RS4-11, 48 h, 50,000 cells per well, 10% human serum, 48 hours; read-out: RS4; 11 EC50 Values
property.label: EC50 (nM)

In the examples that follow, each entry is paired with its recorded EC50.
{"columns": ["compound", "EC50, nM"],
 "data": [
  ["CC1(C)CCC(CN2CCN(c3ccc(C(=O)NS(=O)(=O)c4ccc(N[C@H]5CCN(CCF)C5)c([N+](=O)[O-])c4)c(Oc4cnc5[nH]ccc5c4)c3)CC2)=C(c2ccc(Cl)cc2)C1", 106],
  ["CC1(C)CCC(CN2CCN(c3ccc(C(=O)NS(=O)(=O)c4ccc(NCC5CCOCC5)c([N+](=O)[O-])c4)c(Oc4ccc5[nH]ccc5c4)c3)CC2)=C(c2ccc(Cl)cc2)C1", 86],
  ["O=C(NS(=O)(=O)c1cnc(OCC2(F)CCN(C3COC3)CC2)c(Cl)c1)c1ccc(N2CCN(CC3=C(c4ccc(Cl)cc4)CC4(CC3)CC4)CC2)cc1Oc1cnc2[nH]ccc2c1", 9.25]
]}

(I) CC1(C)CCC(CN2CCN(c3ccc(C(=O)NS(=O)(=O)c4ccc(NCC5CN(S(C)(=O)=O)CCO5)c([N+](=O)[O-])c4)c(Oc4cnc5[nH]ccc5c4)c3)CC2)=C(c2ccc(Cl)cc2)C1 (stereo not shown)
(II) CC1(C)CCC(CN2CCN(c3ccc(C(=O)NS(=O)(=O)c4ccc(NCC5CN(CC(F)F)CCO5)c([N+](=O)[O-])c4)c(Oc4cnc5[nH]ccc5c4)c3)CC2)=C(c2ccc(Cl)cc2)C1 (stereo not shown)
(III) CC1(C)CC(c2ccc(Cl)cc2)=C(CN2CCN(c3ccc(C(=O)NS(=O)(=O)c4ccc(NCC5CCOCC5)c([N+](=O)[O-])c4)c(Oc4ccc5[nH]ccc5c4)c3)CC2)CO1
(IV) CC1(C)CCC(CN2CCN(c3ccc(C(=O)NS(=O)(=O)c4ccc(NC[C@H]5CCCOC5)c([N+](=O)[O-])c4)c(Oc4ccc5[nH]ccc5c4)c3)CC2)=C(c2ccc(Cl)cc2)C1
(V) CC1(C)CCC(CN2CCN(c3ccc(C(=O)NS(=O)(=O)c4ccc(NCCCN(Cc5cncs5)C5CC5)c([N+](=O)[O-])c4)c(Oc4cnc5[nH]ccc5c4)c3)CC2)=C(c2ccc(Cl)cc2)C1
*Q* Rank the 5 compounds: largest EC50 first, smallest last. In your reply, arrange the labels in the requested order.
*A* V, IV, III, II, I
(V: 298 nM, IV: 85 nM, III: 45 nM, II: 11.8 nM, I: 4.5 nM)

###

System: RS4;11 cells
Test: RS4;11 cell viability assay (CellTiter Glo)
Type: cell-based, human
Details: Homo sapiens, RS4-11, 48 h, 50,000 cells per well, 10% human serum, 48 hours; read-out: RS4; 11 EC50 Values
property.label: EC50 (nM)

{"columns": ["compound", "experimental.system", "EC50, nM"],
 "data": [
  ["CO[C@H]1CC[C@H](CNc2ccc(S(=O)(=O)NC(=O)c3ccc(N4CCN(CC5=C(c6ccc(Cl)cc6)CCC6(CCCC6)C5)CC4)cc3Oc3cnc4[nH]ccc4c3)cc2[N+](=O)[O-])CC1 [Example 74]", "RS4;11 cells", 57]
]}

(1) CC1(C)CCC(CN2CCN(c3ccc(C(=O)NS(=O)(=O)c4ccc(NCCCN(C5CC5)C5COC5)c([N+](=O)[O-])c4)c(Oc4cnc5[nH]ccc5c4)c3)CC2)=C(c2ccc(Cl)cc2)C1 [Example 311]
(2) CC1(C)CCC(CN2CCN(c3ccc(C(=O)NS(=O)(=O)c4cnc(OCCN5CCOCC5)c(C#N)c4)c(Oc4cnc5[nH]ccc5c4)c3)CC2)=C(c2ccc(Cl)cc2)C1 [Example 57]
(3) CC1(C)CCC(CN2CCN(c3ccc(C(=O)NS(=O)(=O)c4ccc(NC5CCN(S(C)(=O)=O)CC5)c([N+](=O)[O-])c4)c(Oc4cnc5[nH]ccc5c4)c3)CC2)=C(c2ccc(Cl)cc2)C1 [Example 80]
(4) CC1(C)CCC(CN2CCN(c3ccc(C(=O)NS(=O)(=O)c4ccc(N[C@H]5CC[C@H](NS(C)(=O)=O)CC5)c([N+](=O)[O-])c4)c(Oc4cnc5[nH]ccc5c4)c3)CC2)=C(c2ccc(Cl)cc2)C1 [Example 189]
*Q* Would you mind ranking these compounds by ascending EC50? List the labels, following the order given in the request.
*A* 1, 3, 4, 2
(1: 35.8 nM, 3: 68.6 nM, 4: 144 nM, 2: 426 nM)

###

Test system: RS4;11 cells
Experiment: RS4;11 cell viability assay (CellTiter Glo)
Format: cell-based, human
Details: Homo sapiens, RS4-11, 48 h, 50,000 cells per well, 10% human serum, 48 hours; read-out: RS4; 11 EC50 Values
property.label: EC50 (nM)

(1) CC1(C)CCC(CN2CCN(c3ccc(C(=O)NS(=O)(=O)c4ccc(OCC5(F)CCN(S(C)(=O)=O)CC5)c([N+](=O)[O-])c4)c(Oc4cnc5[nH]ccc5c4)c3)CC2)=C(c2ccc(Cl)cc2)C1
(2) CC1(C)CCC(CN2CCN(c3ccc(C(=O)NS(=O)(=O)c4ccc(NCC5CN(C6COC6)CCO5)c(S(=O)(=O)C(F)(F)F)c4)c(Oc4cnc5[nH]ccc5c4)c3)CC2)=C(c2ccc(Cl)cc2)C1 (stereo not drawn)
*Q* Could you tell me which of 1 and 2 has the lower EC50 reading? Please respond with the label that marks your chosen entry.
*A* 1

###

Tested on: RS4;11 cells
Assay: RS4;11 cell viability assay (CellTiter Glo)
Format: cell-based, human
Conditions: 50,000 cells per well, 10% human serum, 48 hours; read-out: RS4; 11 EC50 Values
pEC50: −log10 of the molar value.
property.label: pEC50

(a) CC1(C)CCC(CN2CCN(c3ccc(C(=O)NS(=O)(=O)c4ccc(NCC56CC7CC(C5)C(O)C(C7)C6)c([N+](=O)[O-])c4)c(Oc4cnc5[nH]ccc5c4)c3)CC2)=C(c2ccc(Cl)cc2)C1 (stereo not shown) [Example 200]
(b) CC1(C)CCC(CN2CCN(c3ccc(C(=O)NS(=O)(=O)c4ccc(NC[C@H]5CC[C@](C)(O)CC5)c([N+](=O)[O-])c4)c(Oc4cnc5[nH]ccc5c4)c3)CC2)=C(c2ccc(Cl)cc2)C1 [Example 338]
(c) CC1(C)CCC(CN2CCN(c3ccc(C(=O)NS(=O)(=O)c4cnc(OC[C@]5(F)CC[C@@](C)(O)CC5)c(Cl)c4)c(Oc4cnc5[nH]ccc5c4)c3)CC2)=C(c2ccc(Cl)cc2)C1 [Example 355]
*Q* Rank the molecules listed above in increasing order of pEC50. Reply: labels, ordered per the request.
*A* c, a, b

###

Tested on: RS4;11 cells
Assay: RS4;11 cell viability assay (CellTiter Glo)
Type: cell-based, human
Conditions: Homo sapiens, RS4-11, 48 h, 50,000 cells per well, 10% human serum, 48 hours; read-out: RS4; 11 EC50 Values
property.label: EC50 (nM)

Known EC50 results, listed for orientation:
{"columns": ["compound", "experimental.system", "uom", "EC50"],
 "data": [
  ["CN1CCOC(CNc2ccc(S(=O)(=O)NC(=O)c3ccc(N4CCN(CC5=C(c6ccc(Cl)cc6)CC(C)(C)CC5)CC4)cc3Oc3cnc4[nH]ccc4c3)cc2[N+](=O)[O-])C1 (centres unmarked)", "RS4;11 cells", "nM", 2.51],
  ["CC1(C)CCC(CN2CCN(c3ccc(C(=O)NS(=O)(=O)c4ccc(NC5CCC6(CC5)OCCO6)c([N+](=O)[O-])c4)c(Oc4cnc5[nH]ccc5c4)c3)CC2)=C(c2ccc(Cl)cc2)C1", "RS4;11 cells", "nM", 202]
]}

(a) CC1(C)CCC(CN2CCN(c3ccc(C(=O)NS(=O)(=O)c4ccc(NC[C@@H]5CCCOC5)c([N+](=O)[O-])c4)c(Oc4ccc5[nH]ccc5c4)c3)CC2)=C(c2ccc(Cl)cc2)C1
(b) O=C(NS(=O)(=O)c1ccc(NCC2CCOCC2)c([N+](=O)[O-])c1)c1ccc(N2CCN(CC3=C(c4ccc(Cl)cc4)CCC(CF)(CF)C3)CC2)cc1Oc1cnc2[nH]ccc2c1
*Q* Lab log: flag the item ( a or b ) with the smaller EC50 figure. # respond with the chosen item's label
*A* b

###

Tested on: RS4;11 cells
Assay: RS4;11 cell viability assay (CellTiter Glo);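 also: acute lymphoblastic leukemia line RS4,11, EC50 derived from percentage of viable cells after treatment relative to untreated controls, cell killing taken as a measure of Bcl-2 inhibition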
Format: cell-based, human
Details: Homo sapiens, RS4-11, 48 h, 50,000 cells per well, 10% human serum, 48 hours; read-out: RS4; 11 EC50 Values
property.label: EC50 (nM)

# count of solved cases: 3
{"columns": ["compound", "uom", "EC50"],
 "data": [
  ["CC1(C)CCC(CN2CCN(c3ccc(C(=O)NS(=O)(=O)c4ccc(NCC5COCCN5C5CCOCC5)c([N+](=O)[O-])c4)c(Oc4cnc5[nH]ccc5c4)c3)CC2)=C(c2ccc(Cl)cc2)C1 (stereo not shown)", "nM", 76.3],
  ["CN1CCC(F)(COc2ccc(S(=O)(=O)NC(=O)c3ccc(N4CCN(CC5=C(c6ccc(Cl)cc6)CC(C)(C)CC5)CC4)cc3Oc3cnc4[nH]ccc4c3)cc2S(=O)(=O)C(F)(F)F)CC1", "nM", 52.8],
  ["CC1(C)CCC(CN2CCN(c3ccc(C(=O)NS(=O)(=O)c4ccc(OC[C@@H]5CC(F)(F)CN5C5COC5)c([N+](=O)[O-])c4)c(Oc4cnc5[nH]ccc5c4)c3)CC2)=C(c2ccc(Cl)cc2)C1", "nM", 88.7]
]}

(1) COc1cccc(CNc2ccc(S(=O)(=O)NC(=O)c3ccc(N4CCN(CC5=C(c6ccc(Cl)cc6)CC(C)(C)CC5)CC4)cc3Oc3cnc4[nH]ccc4c3)cc2[N+](=O)[O-])c1
(2) CC1(C)CCC(CN2CCN(c3ccc(C(=O)NS(=O)(=O)c4ccc(NCc5cccc(OC(F)F)c5)c([N+](=O)[O-])c4)c(Oc4cnc5[nH]ccc5c4)c3)CC2)=C(c2ccc(Cl)cc2)C1
(3) CC1(C)CCC(CC2CCN(c3ccc(C(=O)NS(=O)(=O)c4ccc(NCC5CCOCC5)c([N+](=O)[O-])c4)c(Oc4cnc5[nH]ccc5c4)c3)CC2)C(c2ccc(Cl)cc2)C1 (stereo not shown)
(4) CCN(C)C(=O)N1CCOC(CNc2ncc(S(=O)(=O)NC(=O)c3ccc(N4CCN(CC5=C(c6ccc(Cl)cc6)CC(C)(C)CC5)CC4)cc3Oc3cnc4[nH]ccc4c3)cc2Cl)C1 (stereo not shown)
*Q* Your job: order these 4 records by EC50, ascending. Response format: the labels, sorted as the prompt asks.
*A* 1, 2, 4, 3
(1: 134 nM, 2: 215 nM, 4: 351 nM, 3: 769 nM)
